Test system: tubulin
experiment description: fluorescence-based tubulin polymerization assay
Type: biochemical, Bos taurus
condition description: read-out: Anti-tubulin activity (IC50)
pIC50: −log10 of the molar value.
experimental readout: pIC50

[[record]]
molecule = "COc1cccc(NC(=O)c2cccc3c2Nc2cccc(Cl)c2N3C)c1 [8a]"
readout_number = 5.58

[[record]]
molecule = "CN1c2cccc(C(=O)Nc3cccnc3)c2Nc2cccc(Cl)c21 [8l]"
readout_number = 5.63

